# Tested on: U2OS
# protocolDescription: Multiplex assay against U2OS
# Type: toxicity, cell-based
# experimentalSetup: human, 24 h, 1 µM, compound concentration 1 uM, replicate 1
# note: boundary value 10% maps to 0; Population Pyknosed Nuclei (%) below it maps to 1

For orientation, consider the following solved cases.
molecule	qualitativeLabel
CC(C)c1cc(Nc2nc(N3CCC[C@H](N)C3)ncc2C(N)=O)cc(C(C)C)n1	0
CC[C@@H]1C(=O)N(C)c2cnc(Nc3ccc(C(=O)NC4CCN(C)CC4)cc3OC)nc2N1C1CCCC1	1
Oc1cccc(-c2nc(N3CCOCC3)c3oc4ncccc4c3n2)c1	0

Field: below-cutoff. Rule: recorded Population Pyknosed Nuclei (%) strictly less than 10%. Subject: Cc1c(P(=S)(c2ccccc2)c2ccccc2)n2ccccc2[n+]1C/C=C/c1ccccc1.[Br-]
0

Hello, I'm reviewing records and need to know if Population Pyknosed Nuclei (%) of CC(Cc1ccc(O)c(O)c1)C(C)Cc1ccc(O)c(O)c1 (configuration not stated) [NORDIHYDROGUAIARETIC ACID] is below 10%. Could you check?
1

For this molecule, is Population Pyknosed Nuclei (%) lower than 10%? CCCCCNC(=N)N/N=C/c1c[nH]c2ccc(OC)cc12.O=C(O)/C=C\C(=O)O [TEGASEROD MALEATE]
0

Problem: For the molecule CCCCN(CC)c1nc(C)nc2c1c(C)cn2-c1c(C)cc(C)cc1C.Cl , is Population Pyknosed Nuclei (%) under 10%?
1
